- experimentalTarget: V3 receptor (Rattus norvegicus, UniProt P48974)
- Construct: Anterior pituitary corticotrophs were prepared from adult female Sprague-Dawley rats; endogenous in cells
- Sequence (P48974 whole entry): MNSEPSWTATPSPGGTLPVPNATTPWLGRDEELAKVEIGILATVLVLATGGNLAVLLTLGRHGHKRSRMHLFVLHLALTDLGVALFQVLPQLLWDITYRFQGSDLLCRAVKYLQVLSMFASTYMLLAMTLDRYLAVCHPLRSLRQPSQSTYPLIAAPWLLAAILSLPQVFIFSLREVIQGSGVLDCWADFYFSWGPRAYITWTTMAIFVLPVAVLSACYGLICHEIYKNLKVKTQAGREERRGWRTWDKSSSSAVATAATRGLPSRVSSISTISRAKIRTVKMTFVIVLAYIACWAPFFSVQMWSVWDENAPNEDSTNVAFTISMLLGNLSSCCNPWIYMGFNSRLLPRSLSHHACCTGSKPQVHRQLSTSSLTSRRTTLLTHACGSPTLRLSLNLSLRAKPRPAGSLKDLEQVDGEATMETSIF
- experimentalDetails: Block of AVP-induced ACTH release from isolated rat anterior pituitary corticotrophs
- experimentalConditions: ACTH release after 3x10^-9 mol/L AVP for 120 minutes; ELISA; read-out: V3 receptor antagonism in isolated rat anterior pituitary cells
propertyName: IC50

> print(dat)
                             chemicalsmiles  experimentalvalue
1  CC(C)NC(=O)Cn1c(-c2cccc(Cl)c2)cc2ccc(OC[C@@H](C)CN3CCCC3)cc2c1=O     100 to 1000 nM
2  CC(C)(C)NC(=O)Cn1c(-c2cccc(Cl)c2)cc2ccc(OCCCN3CCC(O)CC3)cc2c1=O       10 to 100 nM
